Attribution: patent US20240059655A1

Test: In vivo PK in rats
Conditions: male, Sprague-Dawley, plasma; rat, IV 10 mg/kg; mean ± SEM
Procedure: In Vivo PK and Brain Permeability Studies. […] 100 μL of blood (yielding ˜50 μL of plasma) samples are taken from the animal's jugular vein and placed into micro K2EDTA tubes. […] The area under the plasma concentration-time curve from 0 to time t (AUC0-t) was evaluated using the linear trapezoidal rule and further extrapolated to infinity (AUC0-∞) according to the following equation: AUC0-∞=AUC0-t+Clast/λ. […]
measuredParameter: AUC(0-inf) (ng·h/mL)

compound="O=C(NCCO)c1cccc2c1CCN2c1cc(Cc2cc(F)cc(C(F)(F)F)c2)ncn1 [Compound 12c]" unitsymbol=ng·h/mL experimentalresult=9030
